The reported numbers originate from PubChem BioAssay (NCI).

test system: RXF 393 renal; assay: NCI tumour cell line growth inhibition, 48 h; in the data active = GI50 below about 0.43 µM; inactive = the rest
Outcomes: label 1 for active, label 0 for inactive

# compound, label
measured = [
    ("O=C1CC(=O)OC(c2ccc([N+](=O)[O-])cc2)O1", "label 0"),
    ("O=[N+]([O-])c1ccc2c(c1)[O][Sn]([I])([I])[O]2", "label 0"),
    ("COc1ccc(C(=O)N2c3ccccc3Sc3ccccc32)c(C(F)(F)F)c1", "label 1"),
    ("CN(C)C(=O)O[C@@H]1CN[C@@H](C#Cc2cc3ncnc(Nc4ccc(OCc5cccc(F)c5)c(Cl)c4)c3s2)C1", "label 0"),
    ("COc1cc2nc(-c3ccc(C(F)(F)F)cc3)cc(OCCCN3CCCCC3)c2cc1OC", "label 0"),
    ("O=C1CCCN1CC#CCN1CCCC1", "label 0"),
    ("C/C(=N\\NC(N)=S)c1nc2ccc(Cl)cc2[nH]1", "label 0"),
    ("COC(=O)C1=C(C(=O)OC)SC(=C(Cl)C(=S)Sc2ccccc2N)S1", "label 0"),
    ("NC(=O)c1ccc(C2C3=C(CCCC3=O)OC3=C2C(=O)c2ccccc2C3=O)cc1 (stereo unspecified)", "label 0"),
    ("CCOc1c(Cl)cc(CNC(C)C(O)c2ccccc2)cc1OC (stereo unspecified)", "label 0"),
    ("N.N.N.N.N.N.O=N[O-].[Br-].[Co+3].[Co+3].[OH3+].[OH3+]", "label 0"),
]

* * *

test system: CAKI-1 renal; experiment: NCI tumour cell line growth inhibition, 48 h

# compound, study-target, quantity-unit, relation-qualifier, TGI
data = [
    ("Cc1cc(C)n(CN(Cn2nc(C)cc2C)C2CCCCC2)n1", "CAKI-1 renal", "µM", "=", 97.7),
    ("COC(=O)C1=C(C(=O)OC)SC(=C(Cl)C(=S)Sc2ccccc2N)S1", "CAKI-1 renal", "µM", ">", 100),
    ("Cc1cc(-c2nnc3n2CCCCC3)c(C)n1-c1ccc(Cl)c(Cl)c1", "CAKI-1 renal", "µM", ">", 100),
    ("Cc1cc2c(=O)c3ccccc3[nH]c2c(C(=O)O)c1C", "CAKI-1 renal", "µM", ">", 100),
    ("O=C(N[C@H]1c2ccsc2/C(=N/O)[C@H]1O)C(F)(F)F", "CAKI-1 renal", "µM", ">", 100),
    ("COc1cc2nc(-c3ccc(C(F)(F)F)cc3)cc(OCCCN3CCCCC3)c2cc1OC", "CAKI-1 renal", "µM", "=", 5.05),
    ("Cc1c(-c2ccccc2)c(C#N)c2nnc(C(N)=O)c(N)n12", "CAKI-1 renal", "µM", ">", 100),
    ("Cc1c2ccc(N(C)c3ccnc(Nc4cccc(S(N)(=O)=O)c4)n3)cc2nn1C", "CAKI-1 renal", "µM", "=", 24.7),
    ("CCCCCCN(CCCCCC)CC(O)c1ccc2c3c(cccc13)CC2 (stereo not given)", "CAKI-1 renal", "µM", "=", 9.35),
    ("CN(C)CCCOCCn1c2c(c3ccccc31)CCCC2", "CAKI-1 renal", "µM", "=", 31.5),
]

* * *

Each entry below lists one item and its recorded TGI value.
tested on: SF-268 CNS; assay: NCI tumour cell line growth inhibition, 48 h

# molecule, TGI
data = [
    ("COc1cc(Br)c(C=Nc2cccc3ccc(OS(=O)(=O)c4cccc([N+](=O)[O-])c4)cc23)cc1OC", "> 100 µM"),
    ("Cc1ccc(-c2n[nH]c(=O)[nH]2)cc1[N+](=O)[O-]", "> 100 µM"),
    ("COc1ccc(Cl)cc1Nc1nc(C(F)(F)F)ccc1C(=O)N/N=C/c1cc(OC)c(OC)c(OC)c1", "5.75 µM"),
    ("Cc1cc(=O)oc2cc(O)ccc12", "> 100 µM"),
    ("COC1CC(OC(=O)c2ccccc2)C(OC(=O)c2ccccc2)C(C)O1 (stereo unspecified)", "> 100 µM"),
    ("Cc1c2cc[n+](C)cc2c(C)c2c1[nH]c1ccc(O)c(OCC(F)(F)F)c12", "1.1 µM"),
    ("CC1CCN(CC(=O)N2c3ccccc3Sc3cc4ccccc4cc32)CC1", "> 100 µM"),
    ("COc1cccc(-c2cc(=O)c3ccc(C)nc3[nH]2)c1", "> 89.7 µM"),
    ("C=C(C=O)CCCC(C)[C@@H]1CCC23CC12CCC1[C@@]2(C)CCC(OC(C)=O)C(C)(C)C2CC(OC2OC(COC(C)=O)C(O)C(O)C2O)[C@]13C (stereo partly specified)", "12.3 µM"),
    ("O=C(NCc1ccc(Cl)cc1)c1cc2sccc2nc1C(F)(F)F", "66.9 µM"),
    ("COc1cc(S(=O)(=O)Nc2ccc(-c3csc(N4C(=O)CSC4c4ccccc4)n3)cc2)ccc1Cl (stereo unspecified)", "> 100 µM"),
    ("C=C1C(=O)OC2/C=C(\\C=O)CC/C=C(\\C)C(O)C[C@@H]12 (stereo partly specified)", "14.7 µM"),
    ("CCN(CC)c1ccc2c(c1)Nc1cc(=C(C#N)C#N)c3ccccc3c1=N2", "> 100 µM"),
    ("O=Cc1ccc(-c2cccs2)s1", "> 100 µM"),
    ("COc1cc(/C=C2\\CCC(C)C3=C2NC(=S)NC3c2cc(OC)c(OC)c(OC)c2)cc(OC)c1OC (stereo unspecified)", "> 100 µM"),
    ("COc1ccc(CN2c3ccccc3CCc3ccccc32)cc1F", "> 100 µM"),
    ("Cc1c2c(OCCCCN3CCN(c4ncccn4)CC3)nn(C)c(=O)c2c(C)n1-c1ccccc1", "34.3 µM"),
    ("Cn1cnc2c(sc3nc4ccccc4n32)c1=N", "> 100 µM"),
    ("CCO/C(O)=C(/C(=N)N1CCCC1)C(=O)Nc1cccc(C(F)(F)F)c1", "> 100 µM"),
    ("CSc1c(C#N)c2n(c3ccccc13)c1ccccc1[n+]2C", "> 100 µM"),
    ("CCOC(=O)C(/C=N\\C(=S)Nc1ccc(OCC)cc1)=C(/O)c1ccccc1", "> 100 µM"),
]
